Data origin, for the record: the supplement of paper PMC6755084

B1: F1*; the commonest letter at each place (parent)
chain: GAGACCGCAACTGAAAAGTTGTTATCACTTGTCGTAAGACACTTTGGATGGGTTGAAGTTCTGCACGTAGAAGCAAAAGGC

- Variants of: B1
- method notes: fraction ligated after 30 min (ligated reads / total reads); higher = more ligase activity
- stated conditions: with F1*sub RNA substrate (template-directed ligation), 42 °C
Record form. Attribute: fraction ligated. Fill in for each entry.

Give its fraction ligated value. Item: C42G A48T
0.792

Give its fraction ligated value. Item: A37G G38C
0.828

Give its fraction ligated value. Item: T29A T45G
0.475

Give its fraction ligated value. Item: `G38T`
0.852

Give its fraction ligated value. Item: C26G A48G
0.058

Give its fraction ligated value. Item: T30C T43G
0.768

Give its fraction ligated value. Item: C28G G55T
0.763

Give its fraction ligated value. Item: T25C G50A
0.326

Give its fraction ligated value. Item: A27T T43C
0.761

Give its fraction ligated value. Item: C40A A48C
0.658

Give its fraction ligated value. Item: C33T A36G
0.854

Give its fraction ligated value. Item: G46A G47C
0.146

Give its fraction ligated value. Item: T23A T25C
0.762

Give its fraction ligated value. Item: A36G G38T
0.806

Give its fraction ligated value. Item: T43C T49A
0.638

Give its fraction ligated value. Item: T29G T44A
0.848

Give its fraction ligated value. Item: A41T G46T
0.787

Give its fraction ligated value. Item: A41G G55C
0.663

Give its fraction ligated value. Item: T23G A24C
0.773

Give its fraction ligated value. Item: A27G T30A
0.839

Give its fraction ligated value. Item: T44C G55C
0.754

Give its fraction ligated value. Item: G38T A39C
0.79

Give its fraction ligated value. Item: T32G A57C
0.82

Give its fraction ligated value. Item: T25G C40A
0.229

Give its fraction ligated value. Item: A37T G47T
0.346

Give its fraction ligated value. Item: T32G A48G
0.75

Give its fraction ligated value. Item: A27G C40A
0.79

Give its fraction ligated value. Item: T32C C40A
0.771

Give its fraction ligated value. Item: T44A A56G
0.777

Give its fraction ligated value. Item: T30A T32C
0.768

Give its fraction ligated value. Item: T32A A36T
0.852

Give its fraction ligated value. Item: T25G A56T
0.0925

Give its fraction ligated value. Item: A37T A39G
0.837

Give its fraction ligated value. Item: C28G A37G
0.809

Give its fraction ligated value. Item: T25C A39C
0.741

Give its fraction ligated value. Item: T25G C33T
0.704

Give its fraction ligated value. Item: T32C C42G
0.806

Give its fraction ligated value. Item: G38T T49G
0.76

Give its fraction ligated value. Item: A36C A37G
0.825

Give its fraction ligated value. Item: A41G T44C
0.76

Give its fraction ligated value. Item: A24C T32G
0.144

Give its fraction ligated value. Item: G34T T35A
0.854

Give its fraction ligated value. Item: T25C A56T
0.107

Give its fraction ligated value. Item: C26A A37G
0.785

Give its fraction ligated value. Item: T29G C42A
0.813

Give its fraction ligated value. Item: `G47A`
0.788

Give its fraction ligated value. Item: G55T A56T A57G
0.0103

Give its fraction ligated value. Item: A27C T44G
0.798

Give its fraction ligated value. Item: G55C A56C A57G
0.0246

Give its fraction ligated value. Item: C33T T35A
0.879

Give its fraction ligated value. Item: A39G A48G
0.814

Give its fraction ligated value. Item: T45G G47C
0.194

Give its fraction ligated value. Item: T29G G47C
0.696

Give its fraction ligated value. Item: C40A A57T
0.792

Give its fraction ligated value. Item: A41G A57C
0.735

Give its fraction ligated value. Item: C40A G47T
0.341

Give its fraction ligated value. Item: A24C T25G
0.787

Give its fraction ligated value. Item: C26T G47A
0.843

Give its fraction ligated value. Item: A24T C26T
0.124

Give its fraction ligated value. Item: C42T G50C
0.497

Give its fraction ligated value. Item: T30G C42G
0.834

Give its fraction ligated value. Item: T45C T49C
0.0485

Give its fraction ligated value. Item: `C33G`
0.831

Give its fraction ligated value. Item: C40A C42T
0.818

Give its fraction ligated value. Item: T25A A48T
0.822

Give its fraction ligated value. Item: C42T T44A
0.862

Give its fraction ligated value. Item: C33G C40G
0.826

Give its fraction ligated value. Item: T29C A36C
0.821

Give its fraction ligated value. Item: A27T T30A
0.775

Give its fraction ligated value. Item: A27T A41G
0.776

Give its fraction ligated value. Item: A39G A41G
0.791

Give its fraction ligated value. Item: G55A A56G A57T
0.152

Give its fraction ligated value. Item: `A36T`
0.843

Give its fraction ligated value. Item: A24G A36C
0.833

Give its fraction ligated value. Item: A24C T29G
0.766

Give its fraction ligated value. Item: A27T A56G
0.791

Give its fraction ligated value. Item: C26A A48G
0.123

Give its fraction ligated value. Item: A24T A27C
0.737

Give its fraction ligated value. Item: T23G C42A
0.835

Give its fraction ligated value. Item: A27C G47T
0.126

Give its fraction ligated value. Item: G55C A56G A57G
0.0448

Give its fraction ligated value. Item: G31A A48C
0.322

Give its fraction ligated value. Item: A39T G50T
0.413

Give its fraction ligated value. Item: T25G A27G
0.434

Give its fraction ligated value. Item: G34A T35A
0.848

Give its fraction ligated value. Item: A37T C40G
0.82

Give its fraction ligated value. Item: G34A G50C
0.43

Give its fraction ligated value. Item: A39G G55T
0.819

Give its fraction ligated value. Item: T25A G34T
0.718

Give its fraction ligated value. Item: T29A C33T
0.859

Give its fraction ligated value. Item: A48G G50T
0.235
